tested on: HL-1; assay: relative cell viability (CellTiter-Glo) vs DMSO control (% of DMSO control); higher = more viable cells; conditions: oxygen condition: normoxia 72 h; 5000 nM
Structures can show the parent of a compound that is named as a salt.
Readout label: relative cell viability
The reply should be a number, written without any unit.

Answered cases to consult:
| Molecule | Quantitative readout |
| --- | --- |
| O=C1CCc2ccc(OCCCCN3CCN(c4cccc(Cl)c4Cl)CC3)cc2N1 [Aripiprazole] | 99.9 |
| N=C(N)N/N=C/c1c(Cl)cccc1Cl [Guanabenz acetate] | 98.9 |
| Nc1ccn([C@@H]2O[C@H](CO)[C@@H](O)C2(F)F)c(=O)n1 [Gemcitabine HCl] | 3.39 |

query: Fill blank: measured relative cell viability of the molecule Cc1c(N(C)C)c(=O)n(-c2ccccc2)n1C [Amidopyrine] is ____.
result: 118

query: Fill blank: measured relative cell viability of the molecule CC1=C(/C=C/C(C)=C/C=C/C(C)=C/C=C/C=C(C)/C=C/C=C(C)/C=C/C2=C(C)CCCC2(C)C)C(C)(C)CCC1 [Beta Carotene] is ____.
result: 104

query: Fill blank: measured relative cell viability of the molecule [I-].[K+] [Potassium iodide] is ____.
result: 109

Origin of the recorded values: the supplement of paper PMC8371130
